Just for reference, ChEMBL document CHEMBL3875147 is where these values come from.

system: Staphylococcus aureus; assay: Antibacterial activity against Staphylococcus aureus ATCC 25923 incubated for 18 to 24 hrs by micro-dilution method; format: functional
What MIC was measured for each of the following?
Write the value in µM as a bare number.

Problem: Please look up its MIC: Cc1cc(C)cc(-n2cc(COC(=O)c3cn(C4CC4)c4cc(N5CCN(Cc6cn(-c7cc(C)cc(C)c7)nn6)CC5)c(F)cc4c3=O)nn2)c1
Result: 71.2

Problem: Please look up its MIC: O=C(OCc1cn(-c2ccc(F)cc2Cl)nn1)c1cn(C2CC2)c2cc(N3CCN(Cc4cn(-c5ccc(F)cc5Cl)nn4)CC3)c(F)cc2c1=O
Result: 2.08

Problem: Please look up its MIC: O=C(OCc1cn(-c2ccc(OC(F)(F)F)cc2)nn1)c1cn(C2CC2)c2cc(N3CCN(Cc4cn(-c5ccc(OC(F)(F)F)cc5)nn4)CC3)c(F)cc2c1=O
Result: 3.84
